So I've got Ki readings for human NK2 receptor (Homo sapiens, UniProt P21452), take a look.
Give just the number in nM; leave the unit off.

Use these answered entries as a reference point.
{"compound": "Cc1cccc(N2C[C@@](CCN3CC(N4CCC(O)CC4)C3)(c3ccc(Cl)c(Cl)c3)CCC2=O)n1 [Example 135a]", "observed value": 3.7}
{"compound": "Cc1cccc(N2C[C@@](CCN3CC(N4CCOCC4)C3)(c3ccc(Cl)c(Cl)c3)CCC2=O)n1", "observed value": 3.8}

Ki lookup needed for COC1CCN(CC[C@]2(c3ccc(Cl)c(Cl)c3)CCC(=O)N(c3ccccn3)C2)CC1 , thanks.
12

Try this compound next: O=C1CC[C@](CCN2CCC(O)(c3ccccn3)CC2)(c2ccc(Cl)c(Cl)c2)CN1c1ccccn1
7

Try this compound next: Cc1cccc(N2C[C@@](CCN3CCC(O)(c4ccccc4)CC3)(c3ccc(Cl)c(Cl)c3)CCC2=O)n1
1.9
